These measurements were taken from PubChem BioAssay AID2060498.

System: 171881-019-R-J1-PDC tumor spheroids, viability;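 note: spheroids exposed to compounds for 7 days; 100% = DMSO vehicle control viability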
Assay: Anticancer human tumor 171881-019-R-J1-PDC patient-derived invasive breast carcinoma cell line growth inhibition [GQUAD]
Conditions: second compound 0.316 µM; first compound 10 µM; stronger effect = lower value; spheroids with HUVEC and MSC
READOUT_NAME: viability, T/C (%)
Just the number please, in %, no unit attached.

What value of measured viability, T/C is listed for CC(=O)O[C@H]1C(=O)[C@@]2(C)[C@H]([C@H](OC(=O)c3ccccc3)[C@]3(O)C[C@H](OC(=O)[C@H](O)[C@@H](NC(=O)c4ccccc4)c4ccccc4)C(C)=C1C3(C)C)[C@]1(OC(C)=O)CO[C@@H]1C[C@@H]2O + Cc1cnc(CNC(=O)c2c(=O)c3ccc(N4CCCN(C)CC4)nc3n3c2sc2ccccc23)cn1 ? 38.5

Similarly, COc1cccc2c1C(=O)c1c(O)c3c(c(O)c1C2=O)CC(O)(C(=O)CO)CC3OC1CC(N)C(O)C(C)O1 (stereo unspecified) + CN(C)c1ccc(Nc2c3ccc(NC(=O)CCN4CCCC4)cc3nc3cc(NC(=O)CCN4CCCC4)ccc23)cc1 ? 0.33

Could you do the same for CC1COCCN1c1cc(-c2ccnn2C)c2ccnc(-c3ccn[nH]3)c2n1 (stereo unspecified) + CN(C)c1ccc(Nc2c3ccc(NC(=O)CCN4CCCC4)cc3nc3cc(NC(=O)CCN4CCCC4)ccc23)cc1 , please? 1.07

Try this compound too: CC1COCCN1c1cc(C2(S(C)(=N)=O)CC2)nc(-c2ccnc3[nH]ccc23)n1 (stereo unspecified) + CN(C)c1ccc(Nc2c3ccc(NC(=O)CCN4CCCC4)cc3nc3cc(NC(=O)CCN4CCCC4)ccc23)cc1 4.97

Try the compound CCCS(=O)(=O)Nc1ccc(F)c(C(=O)c2c[nH]c3ncc(-c4ccc(Cl)cc4)cc23)c1F + Cc1cnc(CNC(=O)c2c(=O)c3ccc(N4CCCN(C)CC4)nc3n3c2sc2ccccc23)cn1 52.1

Can you handle O=C(c1cc(Cc2n[nH]c(=O)c3ccccc23)ccc1F)N1CCN(C(=O)C2CC2)CC1 + Cc1cnc(CNC(=O)c2c(=O)c3ccc(N4CCCN(C)CC4)nc3n3c2sc2ccccc23)cn1 next? 58.2

Next up: C=CC(=O)N1CCN(c2nc(=O)n(-c3c(C)ccnc3C(C)C)c3nc(-c4c(O)cccc4F)c(F)cc23)C(C)C1 (stereo unspecified) + CN(C)c1ccc(Nc2c3ccc(NC(=O)CCN4CCCC4)cc3nc3cc(NC(=O)CCN4CCCC4)ccc23)cc1 42.9

Next compound: CC1COCCN1c1cc(-c2ccnn2C)c2ccnc(-c3ccn[nH]3)c2n1 (stereo unspecified) + Cc1cnc(CNC(=O)c2c(=O)c3ccc(N4CCCN(C)CC4)nc3n3c2sc2ccccc23)cn1 5.04

Let us now turn to CC1COCCN1c1cc(C2(O)CC3CCC(C2)O3)c2cnn(-c3ccn[nH]3)c2n1 (stereo unspecified) + Cc1[nH]c2ccc(F)cc2c1-c1nc2c3cccnc3c3ncccc3c2[nH]1 3.78

Item: O=C(c1cc(Cc2n[nH]c(=O)c3ccccc23)ccc1F)N1CCN(C(=O)C2CC2)CC1 + Cc1[nH]c2ccc(F)cc2c1-c1nc2c3cccnc3c3ncccc3c2[nH]1 81.9

Then Nc1ccn(C2OC(CO)C(O)C2(F)F)c(=O)n1 (stereo unspecified) + CN(C)c1ccc(Nc2c3ccc(NC(=O)CCN4CCCC4)cc3nc3cc(NC(=O)CCN4CCCC4)ccc23)cc1 ? 38.4
